# target_or_system: LC3C, purified (human, UniProt Q9BXW4 1-126)
# Sequence (Q9BXW4 1-126): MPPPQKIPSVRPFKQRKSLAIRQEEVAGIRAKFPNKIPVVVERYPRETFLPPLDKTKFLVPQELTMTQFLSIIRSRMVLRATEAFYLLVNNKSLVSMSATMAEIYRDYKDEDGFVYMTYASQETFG
# procedure_details: BLI
pKd: −log10 of the molar value. Where no end group is shown, it is not given here.
parameter: pKd

binder	result_number
DFGGLGEEAEFVEVEPEAKQEILE (also: biotinylated, position not given here) [biotinylated SAMM50 LIR peptide (residues 18–41)]	4.24
